assay-explanation: Concentration tested in vitro to inhibit PAF-induced maximum aggregation (PAF-Antagonistic activity) by 50%.
pIC50: −log10 of the molar value.
Use class 1 when the recorded pIC50 is no lower than 7; use class 0 when it is lower.

Here's what some known entries look like.
molecule | class-name
N#CC(c1cccnc1)N1CCN(CC(=O)NCCC(c2ccccc2)c2ccccc2)CC1 (stereo not given) | class 0
N#CC(=C1CCN(C(=O)CC(c2ccccc2)c2ccccc2)CC1)c1cccnc1 | class 1
N#CC(c1cccnc1)N1CCN(C(=O)CNCc2ccccc2)CC1 (stereo not given) | class 0

Given N#CC(c1ccncc1)N1CCN(CCNC(c2ccccc2)c2ccccc2)CC1 (stereo not given) , state whether its pIC50 is at least 7.
class 1

Given N#CC(c1cccnc1)N1CCN(C(=O)CCCc2ccccc2)CC1 (stereo not given) , state whether its pIC50 is at least 7.
class 0

Given N#CC(c1cccnc1)N1CCN(CCNC(=O)C(c2ccccc2)c2ccccc2)CC1 (stereo not given) , state whether its pIC50 is at least 7.
class 1
